Taken from ChEMBL document CHEMBL5518236.

# run-description: Protein binding in rat plasma assessed as fraction unbound at 5 uM measured after 18 hrs by LC-MS/MS analysis
# Format: ADME, cell-free
# condition-notes: read-out: PPB
Field: fraction unbound at 18 h, 5 µM. Provide a value for each of the compounds that follow.
No unit in the answer, only the number.

`COc1cc(C#N)c(O[C@H]2CC[C@@](C)(C(=O)O)CC2)cc1C(=O)N[C@@H]1[C@H]2CC[C@H](C2)[C@@H]1C(=O)NC12CC(F)(C1)C2` yielded fraction unbound at 18 h, 5 µM of 0.101

According to the records, this compound `COc1cc(F)c(O[C@H]2CC[C@@H](C(=O)O)CC2)cc1C(=O)N[C@@H]1[C@H]2CC[C@H](C2)[C@@H]1C(=O)NCC(C)(C)C` displays fraction unbound at 18 h, 5 µM of 0.079

For reference, reported fraction unbound at 18 h, 5 µM for `COc1cc(C#N)c(O[C@H]2CC[C@@](C)(C(=O)O)CC2)cc1C(=O)N[C@@H]1[C@H]2CC[C@H](C2)[C@@H]1C(=O)NCC(C)(C)C` stands at 0.078

###

Answer each item with its documented log10 CL free.
# run-description: Metabolic stability in human liver microsomes assessed as unbound intrinsic clearance at 1 uM measured upto 30 mins by LC-MS/MS analysis
# Type: ADME, Microsome
# condition-notes: 0.5 h
All values: log10 CL free [µL/min/mg].

Record `CC1(CNC(=O)[C@H]2[C@@H]3CC[C@@H](C3)[C@H]2NC(=O)c2cc(O[C@H]3CC[C@@](C)(C(=O)O)CC3)c(F)cc2F)CCC1` , field log10 CL free: 1.69

Quick note, log10 CL free for `COc1cc(F)c(O[C@H]2CC[C@@](C)(C(=O)O)CC2)cc1C(=O)N[C@@H]1[C@H]2CC[C@H](C2)[C@@H]1C(=O)NCC(C)C` landed at 0.88

Record `Cc1cc(F)c(O[C@H]2CC[C@@](C)(C(=O)O)CC2)cc1C(=O)N[C@@H]1[C@H]2CC[C@H](C2)[C@@H]1C(=O)NCC1(C)CCC1` , field log10 CL free: 1.36

Entry under test: `COc1c(C#N)cc(O[C@H]2CC[C@@](C)(C(=O)O)CC2)cc1C(=O)N[C@@H]1[C@H]2CC[C@H](C2)[C@@H]1C(=O)NCC1(C)CCC1` . Its log10 CL free was 1.84

response.value for CC1(CNC(=O)[C@H]2C3CCC(C3)[C@H]2NC(=O)c2cc(O[C@H]3CC[C@@](C)(C(=O)O)CC3)c(C#N)cc2F)CCC1 (stereo partly drawn) (field: log10 CL free) = 1.43

response.value for `COc1cc(F)c(O[C@H]2CC[C@@](C)(c3noc(=O)[nH]3)CC2)cc1C(=O)N[C@@H]1[C@H]2CC[C@H](C2)[C@@H]1C(=O)NCC1(C)CCC1` (field: log10 CL free) = 2.33

Entry `COc1cc(S(C)(=O)=O)c(O[C@H]2CC[C@@](C)(C(=O)O)CC2)cc1C(=O)N[C@@H]1[C@H]2CC[C@H](C2)[C@@H]1C(=O)NCC1(C)CCC1` — recorded log10 CL free = 1.15

# log10 CL free (compound: `COc1cc(C2CC2)c(O[C@H]2CC[C@@](C)(C(=O)O)CC2)cc1C(=O)N[C@@H]1[C@H]2CC[C@H](C2)[C@@H]1C(=O)NCC1(C)CCC1` ) is 1.79

Record `CC1(CNC(=O)[C@H]2[C@@H]3CC[C@@H](C3)[C@H]2NC(=O)c2cc(O[C@H]3CC[C@@](C)(C(=O)O)CC3)ccn2)CCC1` . Reported log10 CL free: 1.54

Documented log10 CL free of `COc1cc(C#N)c(O[C@H]2CC[C@@](C)(C(=O)O)CC2)cc1C(=O)N[C@@H]1[C@H]2CC[C@H](C2)[C@@H]1C(=O)NC12CC(F)(C1)C2` : 0.67

Entry `COc1c(Cl)cc(O[C@H]2CC[C@@](C)(C(=O)O)CC2)cc1C(=O)N[C@@H]1[C@H]2CC[C@H](C2)[C@@H]1C(=O)NCC1(C)CCC1` , log10 CL free reported as 2.17

Summary for this compound, `COc1cc(Cl)c(O[C@H]2CC[C@@](C)(C(=O)O)CC2)cc1C(=O)N[C@@H]1[C@H]2CC[C@H](C2)[C@@H]1C(=O)NCC1(C)CCC1` : log10 CL free is 1.81

The compound identified as `CC1(CNC(=O)[C@H]2[C@@H]3CC[C@@H](C3)[C@H]2NC(=O)c2cc(O[C@H]3CC[C@@](C)(C(=O)O)CC3)c(C#N)cn2)CCC1` registered its log10 CL free at 1.30

log10 CL free reading for `CC1(CNC(=O)[C@H]2[C@@H]3CC[C@@H](C3)[C@H]2NC(=O)c2cc(O[C@H]3CC[C@@](C)(C(=O)O)CC3)c(F)cc2OC(F)F)CCC1` : 1.77

The measured log10 CL free associated with `CC1(CNC(=O)[C@H]2[C@@H]3CC[C@@H](C3)[C@H]2NC(=O)c2ccc(F)c(O[C@H]3CC[C@@](C)(C(=O)O)CC3)c2)CCC1` reads 0.94
